biological target: glucose-6-phosphate dehydrogenase-6-phosphogluconolactonase (Plasmodium falciparum 3D7); assay: concentration-dependent PfGluPho enzyme inhibition – biochemical, fluorescence intensity, dose response (AID 504765); conditions: Recombinant PfG6PD enzyme, fluorescence intensity (NADPH)
The source made the active and inactive calls. The rule behind the calls is not given here.
Use one of these outcomes when replying: 1.0 for active, 0.0 for inactive

> print(dat)
                                   molecule                               system.name  category
1  COc1ccc2nc3cc(Cl)ccc3c(Nc3ccc(O)c(CN4CCN(C)CC4)c3)c2c1  glucose-6-phosphate dehydrogenase-6-phosphogluconolactonase (Plasmodium falciparum 3D7)       0.0
2       O=c1[nH]c2ccccc2n2c(-c3ccccc3)nnc12  glucose-6-phosphate dehydrogenase-6-phosphogluconolactonase (Plasmodium falciparum 3D7)       1.0
3                   Clc1ccc(N=c2ssnc2Cl)nc1  glucose-6-phosphate dehydrogenase-6-phosphogluconolactonase (Plasmodium falciparum 3D7)       0.0
4  O=C1NC(=O)C(=Cc2ccc(-c3ccccc3[N+](=O)[O-])o2)C(=O)N1  glucose-6-phosphate dehydrogenase-6-phosphogluconolactonase (Plasmodium falciparum 3D7)       1.0

Kindly consider the entry below.
Test call for this molecule, please: CCNc1cc2c(cc1O)CCC1C2CCC2(C)C(O)CCC12 (stereo not given)
0.0

# credit: PubChem BioAssay AID504765
